Every entry's value here was drawn from ChEMBL document CHEMBL6092221.

- test_description: Half life in human OVCAR-3 cells xenografted in female Balb/c nude mouse plasma at 20 mg/kg, po administered once daily
- Type: ADME, organism-based
endpoint: half-life (h)
# output: bare number, implied unit h

Measured half-life of CN1CC(F)(F)CCN(C)[C@H]2CC[C@@H](C2)Nc2ncc(C(F)(F)F)c(n2)-c2c[nH]c3c(P(C)(C)=O)c(ccc23)C1=O : 3.4

----------
- test_description: Drug concentration in rat small intestine at 5 mg/kg, po measured after 8 hrs
- Format: ADME, organism-based
- details: read-out: Ct
endpoint: concentration at 8 h
Give me the value, and tack the unit on after it.

1) CC1(C)CC[C@H](Nc2ncc(C(F)(F)F)c(-c3c[nH]c4c(P(C)(C)=O)c(C#N)ccc34)n2)CN1 [SY-5609]    842 ng/g

Please examine the following record next.
Measured concentration at 8 h of CN1CC(F)(F)CCN(C)[C@H]2CC[C@@H](C2)Nc2ncc(C(F)(F)F)c(n2)-c2c[nH]c3c(P(C)(C)=O)c(ccc23)C1=O : 67 ng/g

----------
- test_description: Permeability in human Caco-2 cells
- Format: ADME, cell-based
- details: read-out: permeability
endpoint: Papp (×10⁻⁶ cm/s)
# output: bare number, implied unit ×10⁻⁶ cm/s

Check out these entries, answers already filled in.
1) CN1CC(F)(F)CCN(C)[C@H]2CC[C@@H](C2)Nc2ncc(C(F)(F)F)c(n2)-c2c[nH]c3c(P(C)(C)=O)c(ccc23)C1=O    3.69
2) CN1CCCCN(C)[C@H]2CC[C@@H](C2)Nc2ncc(C(F)(F)F)c(n2)-c2c[nH]c3c(P(C)(C)=O)c(ccc23)C1=O    0.72
3) CC1(C)CC[C@H](Nc2ncc(C(F)(F)F)c(-c3c[nH]c4c(P(C)(C)=O)c(C#N)ccc34)n2)CN1 [SY-5609]    2.54
4) CN1CCOCCN(C)[C@H]2CC[C@@H](C2)Nc2ncc(C(F)(F)F)c(n2)-c2c[nH]c3c(P(C)(C)=O)c(ccc23)C1=O    0.39
5) CN1CCCCO[C@H]2CC[C@@H](C2)Nc2ncc(C(F)(F)F)c(n2)-c2c[nH]c3c(P(C)(C)=O)c(ccc23)C1=O    26
6) CN1C[C@H](F)CCN(C)[C@H]2CC[C@@H](C2)Nc2ncc(C(F)(F)F)c(n2)-c2c[nH]c3c(P(C)(C)=O)c(ccc23)C1=O    0.9

Please examine the following record next.
Measured Papp of CN1C[C@@H](F)CCN(C)[C@H]2CC[C@@H](C2)Nc2ncc(C(F)(F)F)c(n2)-c2c[nH]c3c(P(C)(C)=O)c(ccc23)C1=O : 1.91

----------
- assayed_system: Serine/threonine-protein kinase D1 (Homo sapiens, UniProt Q15139)
- Sequence (Q15139 whole entry): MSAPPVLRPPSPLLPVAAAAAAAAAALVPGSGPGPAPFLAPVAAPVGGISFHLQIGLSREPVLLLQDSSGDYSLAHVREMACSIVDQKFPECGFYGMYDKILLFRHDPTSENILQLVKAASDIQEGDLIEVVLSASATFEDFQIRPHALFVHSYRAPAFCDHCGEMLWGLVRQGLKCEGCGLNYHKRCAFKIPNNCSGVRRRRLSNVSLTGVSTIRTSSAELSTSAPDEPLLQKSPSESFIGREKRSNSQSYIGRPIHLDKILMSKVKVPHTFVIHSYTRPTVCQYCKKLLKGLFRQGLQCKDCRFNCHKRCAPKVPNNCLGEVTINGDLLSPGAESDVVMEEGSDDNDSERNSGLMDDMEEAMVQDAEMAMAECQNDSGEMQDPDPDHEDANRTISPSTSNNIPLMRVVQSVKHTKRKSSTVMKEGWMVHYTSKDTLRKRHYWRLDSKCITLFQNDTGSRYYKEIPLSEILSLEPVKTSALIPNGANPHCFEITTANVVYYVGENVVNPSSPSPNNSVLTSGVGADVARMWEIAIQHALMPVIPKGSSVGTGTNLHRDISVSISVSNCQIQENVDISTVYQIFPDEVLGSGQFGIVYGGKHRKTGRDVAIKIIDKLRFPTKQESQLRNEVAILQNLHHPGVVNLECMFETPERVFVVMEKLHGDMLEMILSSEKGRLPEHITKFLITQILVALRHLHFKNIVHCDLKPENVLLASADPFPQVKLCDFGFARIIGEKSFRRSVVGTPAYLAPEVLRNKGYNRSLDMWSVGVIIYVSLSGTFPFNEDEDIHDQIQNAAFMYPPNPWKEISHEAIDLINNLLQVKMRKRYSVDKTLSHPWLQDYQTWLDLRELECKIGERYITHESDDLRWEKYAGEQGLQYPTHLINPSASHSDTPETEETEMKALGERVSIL
- test_description: Inhibition of PRKD1 (unknown origin)
endpoint: pIC50
# pIC50 is unitless: minus log10 of the molar concentration; print number only

Measured pIC50 of CN1CC(F)(F)CCN(C)[C@H]2CC[C@@H](C2)Nc2ncc(C(F)(F)F)c(n2)-c2c[nH]c3c(P(C)(C)=O)c(ccc23)C1=O : 7.63

----------
- test_description: Drug concentration in rat small intestine at 5 mg/kg, po measured after 0.5 hrs
- Format: ADME, organism-based
- details: read-out: Ct
Collected concentration at 0.5 h values appear next to each entry.
# output: bare number, implied unit ng/g

1) CN1CC(F)(F)CCN(C)[C@H]2CC[C@@H](C2)Nc2ncc(C(F)(F)F)c(n2)-c2c[nH]c3c(P(C)(C)=O)c(ccc23)C1=O    2240

Please examine the following record next.
Measured concentration at 0.5 h of CC1(C)CC[C@H](Nc2ncc(C(F)(F)F)c(-c3c[nH]c4c(P(C)(C)=O)c(C#N)ccc34)n2)CN1 : 2500

----------
- test_description: Half life in dog at 1 mg/kg, iv
- Format: ADME, organism-based, Canis lupus familiaris
- details: in vivo
endpoint: half-life (h)
# output: bare number, implied unit h

Measured half-life of CC1(C)CC[C@H](Nc2ncc(C(F)(F)F)c(-c3c[nH]c4c(P(C)(C)=O)c(C#N)ccc34)n2)CN1 [SY-5609] : 6.9

----------
- assayed_system: CDK18/Cyclin Y (Homo sapiens, UniProt Q07002+Q8ND76)
- Sequence (Q07002 whole entry): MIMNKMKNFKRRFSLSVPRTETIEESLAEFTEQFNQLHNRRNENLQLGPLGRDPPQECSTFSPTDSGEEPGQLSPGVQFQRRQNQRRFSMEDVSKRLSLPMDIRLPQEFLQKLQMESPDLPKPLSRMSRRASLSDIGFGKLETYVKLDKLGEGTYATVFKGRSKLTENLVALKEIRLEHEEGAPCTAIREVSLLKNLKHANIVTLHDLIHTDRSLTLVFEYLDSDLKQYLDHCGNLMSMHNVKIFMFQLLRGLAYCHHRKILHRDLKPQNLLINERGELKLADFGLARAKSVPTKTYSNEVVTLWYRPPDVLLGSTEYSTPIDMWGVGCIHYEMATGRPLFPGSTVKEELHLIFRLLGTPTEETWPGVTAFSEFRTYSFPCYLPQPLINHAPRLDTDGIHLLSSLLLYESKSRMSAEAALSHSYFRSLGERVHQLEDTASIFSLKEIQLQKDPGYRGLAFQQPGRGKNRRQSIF
- Sequence (Q8ND76 whole entry): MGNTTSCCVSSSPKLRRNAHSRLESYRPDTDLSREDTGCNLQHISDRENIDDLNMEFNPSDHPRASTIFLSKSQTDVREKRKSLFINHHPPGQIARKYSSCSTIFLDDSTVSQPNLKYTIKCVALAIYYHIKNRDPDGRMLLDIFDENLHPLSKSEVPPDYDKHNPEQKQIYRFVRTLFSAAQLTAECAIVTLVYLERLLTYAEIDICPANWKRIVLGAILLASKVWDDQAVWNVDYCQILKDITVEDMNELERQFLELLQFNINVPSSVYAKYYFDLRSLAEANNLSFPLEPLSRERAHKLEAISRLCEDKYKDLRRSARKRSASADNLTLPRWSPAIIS
- test_description: Inhibition of CDK18/Cyclin Y (unknown origin)
endpoint: IC50 (nM)
# output: bare number, implied unit nM

Measured IC50 of CN1CC(F)(F)CCN(C)[C@H]2CC[C@@H](C2)Nc2ncc(C(F)(F)F)c(n2)-c2c[nH]c3c(P(C)(C)=O)c(ccc23)C1=O : 4.2

----------
- test_description: AUC(0 to t) in human HCC70 cells xenografted in female nu/nu mouse plasma at 1 mg/kg, po administered once daily
- Assay type: ADME, organism-based
Collected AUC(0-t) values appear next to each entry.
# output: bare number, implied unit ng·h/mL

1) CC1(C)CC[C@H](Nc2ncc(C(F)(F)F)c(-c3c[nH]c4c(P(C)(C)=O)c(C#N)ccc34)n2)CN1    138

Please examine the following record next.
Measured AUC(0-t) of CN1CC(F)(F)CCN(C)[C@H]2CC[C@@H](C2)Nc2ncc(C(F)(F)F)c(n2)-c2c[nH]c3c(P(C)(C)=O)c(ccc23)C1=O : 84

----------
- test_description: Oral bioavailability in female Balb/c nude mouse at 10 mg/kg
- Assay type: ADME, organism-based
- details: in vivo
endpoint: bioavailability
Give me the value, and tack the unit on after it.

1. CP(C)(=O)c1c2ccc3c(c[nH]c13)-c1nc(ncc1C(F)(F)F)N[C@H]1CC[C@@H](C1)NCCCCNC2=O    0.7%

Please examine the following record next.
Measured bioavailability of CP(C)(=O)c1c2ccc3c(c[nH]c13)-c1nc(ncc1C(F)(F)F)N[C@H]1CC[C@@H](C1)NCCOCCNC2=O : 22.8%

----------
- test_description: Cmax in Sprague-Dawley rat at 30 mg/kg, po
- Format: ADME, organism-based
- details: in vivo
endpoint: Cmax (ng/mL)
# output: bare number, implied unit ng/mL

Measured Cmax of CN1CC(F)(F)CCN(C)[C@H]2CC[C@@H](C2)Nc2ncc(C(F)(F)F)c(n2)-c2c[nH]c3c(P(C)(C)=O)c(ccc23)C1=O : 1270

----------
- test_description: Clearance in dog at 0.2 mg/kg, iv
- Type: ADME, organism-based, Canis lupus familiaris
- details: in vivo
endpoint: clearance (mL/min/kg)
# output: bare number, implied unit mL/min/kg

Measured clearance of CN1CC(F)(F)CCN(C)[C@H]2CC[C@@H](C2)Nc2ncc(C(F)(F)F)c(n2)-c2c[nH]c3c(P(C)(C)=O)c(ccc23)C1=O : 1.2

----------
- test_description: AUC (0 to t) in human OVCAR-3 cells xenografted in female Balb/c nude mouse plasma at 2 mg/kg, po administered once daily
- Assay type: ADME, organism-based
endpoint: AUC(0-t) (ng·h/mL)
# output: bare number, implied unit ng·h/mL

Measured AUC(0-t) of CN1CC(F)(F)CCN(C)[C@H]2CC[C@@H](C2)Nc2ncc(C(F)(F)F)c(n2)-c2c[nH]c3c(P(C)(C)=O)c(ccc23)C1=O : 329

----------
- test_description: Cmax in human HCC70 cells xenografted in female nu/nu mouse plasma at 10 mg/kg, po administered once daily
- Assay type: ADME, organism-based
endpoint: Cmax (ng/mL)
# output: bare number, implied unit ng/mL

Measured Cmax of CN1CC(F)(F)CCN(C)[C@H]2CC[C@@H](C2)Nc2ncc(C(F)(F)F)c(n2)-c2c[nH]c3c(P(C)(C)=O)c(ccc23)C1=O : 401

----------
- assayed_system: Cytochrome P450 2C9 (Homo sapiens)
- Sequence (P11712 whole entry): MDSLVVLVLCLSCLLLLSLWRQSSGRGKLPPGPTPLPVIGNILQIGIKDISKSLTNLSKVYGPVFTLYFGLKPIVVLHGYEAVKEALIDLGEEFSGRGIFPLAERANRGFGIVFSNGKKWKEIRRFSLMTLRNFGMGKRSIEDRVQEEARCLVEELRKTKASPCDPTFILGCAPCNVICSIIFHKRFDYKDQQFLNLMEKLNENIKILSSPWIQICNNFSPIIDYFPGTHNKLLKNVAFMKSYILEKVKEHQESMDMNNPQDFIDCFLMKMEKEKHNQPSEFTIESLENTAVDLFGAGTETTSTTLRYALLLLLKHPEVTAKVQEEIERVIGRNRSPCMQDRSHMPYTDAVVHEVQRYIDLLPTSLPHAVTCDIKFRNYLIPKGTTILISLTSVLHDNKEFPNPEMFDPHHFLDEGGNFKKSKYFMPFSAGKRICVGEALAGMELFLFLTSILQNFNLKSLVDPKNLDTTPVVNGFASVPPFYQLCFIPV
endpoint: IC50
Give me the value, and tack the unit on after it.

// compound CN1CC(F)(F)CCN(C)[C@H]2CC[C@@H](C2)Nc2ncc(C(F)(F)F)c(n2)-c2c[nH]c3c(P(C)(C)=O)c(ccc23)C1=O , assay Cytochrome P450 2C9 (Homo sapiens), IC50 value: 41.9 µM

----------
- test_description: Clearance in dog at 1 mg/kg, iv
- Type: ADME, organism-based, Canis lupus familiaris
- details: in vivo
endpoint: clearance
Give me the value, and tack the unit on after it.

Measured clearance of CC1(C)CC[C@H](Nc2ncc(C(F)(F)F)c(-c3c[nH]c4c(P(C)(C)=O)c(C#N)ccc34)n2)CN1 : 14.5 mL/min/kg

----------
- test_description: AUC(0 to t) in human HCC70 cells xenografted in female nu/nu mouse plasma at 3 mg/kg, po administered once daily
- Format: ADME, organism-based
endpoint: AUC(0-t)
Give me the value, and tack the unit on after it.

Measured AUC(0-t) of CN1CC(F)(F)CCN(C)[C@H]2CC[C@@H](C2)Nc2ncc(C(F)(F)F)c(n2)-c2c[nH]c3c(P(C)(C)=O)c(ccc23)C1=O : 203 ng·h/mL
